- assay_info: LD50 in mice
- recorded_conditions: mouse, in vivo, ip
readout_name: LD50 (mg/kg)

input_smiles	measured_number
CC(C)NC(=O)CNC(=O)[C@H](Cc1ccccc1)N(C)C(=O)CNC(=O)[C@@H](C)NC(=O)[C@@H](N)Cc1ccc(O)cc1	1000
